Where these numbers come from: patent US20070219220A1

experiment: Preliminary acute toxicity, Bliss method (Example 13); conditions: rat, in vivo, oral and intragastric administration, rats
result-type: LD50

*Q* Recorded LD50 for CCCc1nn(C)c2c(=S)[nH]c(-c3cc(S(=O)(=O)N4C[C@@H](C)N[C@@H](C)C4)ccc3OCC)nc12 [Compound (2)] , please?
*A* > 3000 mg/kg

*Q* Please give the measured LD50 for this compound: CCCc1nn(CC)c2c(=S)[nH]c(-c3cc(S(=O)(=O)N4C[C@@H](C)N[C@@H](C)C4)ccc3OCC)nc12 [Compound (1)]
*A* > 3000 mg/kg

*Q* # lookup: LD50 of CCCOc1ccc(S(=O)(=O)N2C[C@@H](C)N[C@@H](C)C2)cc1-c1nc2c(CCC)nn(C)c2c(=S)[nH]1 [Compound (4)]
*A* > 3000 mg/kg

*Q* Value lookup for LD50; key = CCCc1nn(C)c2c(=S)[nH]c(-c3cc(S(=O)(=O)N4C[C@@H](C)N[C@@H](C)C4)ccc3OC)nc12 [Compound (3)]
*A* 2500 mg/kg
